- Tested on: Middle East respiratory syndrome-related coronavirus
- ASSAY_METHOD_TEXT: microbe, parasite or virus in culture
- STATED_CONDITIONS: EMC2012, HEK-293T
I'd appreciate it if you could supply EC50 values for the items below.
The figure you give is taken to be in nM; do not add the unit.

Exercise: Checklist item: EC50 tested on Middle East respiratory syndrome-related coronavirus, entry O=c1nc(NO)ccn1[C@@H]1O[C@H](CO)[C@@H](O)[C@H]1O [N-HYDROXYCYTIDINE] , value?
Solution: 1320

Exercise: Checklist item: EC50 tested on Middle East respiratory syndrome-related coronavirus, entry COc1cccc2[nH]c(C(=O)N[C@@H](CC(C)C)C(=O)N[C@@H](C[C@@H]3CCNC3=O)C(=O)CO)cc12 [PF-00835231] , value?
Solution: 700

Exercise: Checklist item: EC50 tested on Middle East respiratory syndrome-related coronavirus, entry COc1cccc2[nH]c(C(=O)N[C@@H](CC(C)C)C(=O)NN(C[C@@H]3CCNC3=O)C(=O)[C@H](F)Cl)cc12 , value?
Solution: 5.01

Exercise: Checklist item: EC50 tested on Middle East respiratory syndrome-related coronavirus, entry CC(C)C[C@H](NC(=O)c1cc2c(F)cccc2[nH]1)C(=O)NN(C[C@@H]1CCNC1=O)C(=O)[C@H](F)Cl , value?
Solution: 4.72

###

- ASSAY_METHOD_TEXT: Bioavailability in fasted ICR/c mouse at 100 mg/kg, po or 10 mg/kg, iv by LC-MS/MS analysis
- Type: ADME, organism-based
- STATED_CONDITIONS: in vivo
MEASUREMENT_NAME: bioavailability (%)
The figure you give is taken to be in %; do not add the unit.

Exercise: Fill in the blank: the reported bioavailability of CC(C)C[C@H](NC(=O)c1cc2c(F)cccc2[nH]1)C(=O)NN(C[C@@H]1CCNC1=O)C(=O)[C@H](F)Cl is ____.
Solution: 9

###

- System: SARS-CoV
- ASSAY_METHOD_TEXT: microbe, parasite or virus in culture
- STATED_CONDITIONS: Severe acute respiratory syndrome-related coronavirus, HEK-293T
I'd appreciate it if you could supply EC50 values for the items below.
The figure you give is taken to be in µM; do not add the unit.

Exercise: Fill in the blank: the reported EC50 of CC(C)C[C@H](NC(=O)c1cc2c(F)cccc2[nH]1)C(=O)NN(C[C@@H]1CCNC1=O)C(=O)[C@H](F)Cl is ____.
Solution: 0.0593

Exercise: Fill in the blank: the reported EC50 of COc1cccc2[nH]c(C(=O)N[C@@H](CC(C)C)C(=O)NN(C[C@@H]3CCNC3=O)C(=O)[C@H](F)Cl)cc12 is ____.
Solution: 0.0644

Exercise: Fill in the blank: the reported EC50 of O=c1nc(NO)ccn1[C@@H]1O[C@H](CO)[C@@H](O)[C@H]1O [N-HYDROXYCYTIDINE] is ____.
Solution: 1.56

Exercise: Fill in the blank: the reported EC50 of COc1cccc2[nH]c(C(=O)N[C@@H](CC(C)C)C(=O)N[C@@H](C[C@@H]3CCNC3=O)C(=O)CO)cc12 [PF-00835231] is ____.
Solution: 3.24
